system: HIV-RT enzyme (HIV-1 reverse transcriptase) (Human immunodeficiency virus type 1 group M subtype B)
Construct: Reactions were initiated by the addition of 30 μl of the HIV-RT enzyme
experiment notes: HIV-1 Reverse Transcriptase Assay Inhibitor IC50 Determination (RNA-dependent DNA polymerase activity, SPA)
Format: biochemical
condition context: RNA-dependent DNA polymerase activity, SPA, 30 min at 30°; read-out: HIV-RT IC50
Below, each entry is listed alongside its reported pIC50.
Scale: negative log10 of molar concentration, which is what pIC50 denotes.

>>> meas_value("Cc1cc(S(N)(=O)=O)ccc1NC(=O)COc1ccc(Cl)c(Oc2cc(Br)cc(C#N)c2)c1F")
8.18
>>> meas_value("CCC(=O)NS(=O)(=O)c1ccc(NC(=O)COc2ccc(Br)c(Oc3cc(Cl)cc(C#N)c3)c2F)c(Cl)c1")
8.32
>>> meas_value("Cc1cc(S(N)(=O)=O)ccc1NC(=O)COc1ccc(Cl)c(Oc2cc(C#N)cc(C#N)c2)c1F")
8.42

Lab note: next compound to report on.
-- ask Item under review: `COc1cc(C#N)cc(Oc2c(Cl)ccc(OCC(=O)Nc3ccc(S(N)(=O)=O)cc3C)c2F)c1` . Reported pIC50?
-- reply 8.51

These entries and their values trace back to patent US20080020981A1.
